system: U251 CNS; assay: NCI tumour cell line growth inhibition, 48 h
As shown below, each of these molecules has a reported TGI value.
Endpoint label: TGI

COc1ccc(C(=O)c2cc3c(N)c(C(=O)Nc4cccc5ccccc45)sc3nc2C)cc1 = > 50 µM
C/C=C(\C)C(=O)O[C@H]1C=CC(=O)O[C@@H]1CC[C@H](O)[C@H](C)O = > 100 µM
CC1=NN(c2nc(N)nc(/C(C#N)=C/c3cccn3-c3cc(Cl)cc(Cl)c3)n2)C(C)(C)C1 = 28.3 µM
Cc1ccc(CNc2c3ccccc3nc3cc(NC(=O)CCN4CCCC4)ccc23)cc1 = 2.05 µM
C[C@H]1C[C@H]2[C@@H]3C(C)(C)O[C@]4(O)C(=O)[C@]5(O)[C@@H](C)CC[C@H]1[C@]25C(=O)[C@]34C = > 100 µM
CC1(O)CC(=O)c2c(cc3ccc(-c4c5c(c(O)c6c(O)cccc46)C(=O)CC(C)(O)C5)c(O)c3c2O)C1 (centres undefined) = 1.74 µM
c1ccc2c(c1)CCc1c-2n(CCN2CCOCC2)c2ccccc12 = > 100 µM
COc1cccc(-n2ncc3c(N/N=C/c4ccncc4)ncnc32)c1 = > 25 µM
COc1cc(C2C(Cl)C(=O)N2NC(=O)c2ccc(N)cc2)ccc1O (centres undefined) = 32 µM
